Could you please report measured abundance fitness for the items listed next?
B1: Receptor-interacting serine/threonine-protein kinase 2, residues 438 to 518; numbered along this chain, O43353 (parent)
chain: QWIQSKREDIVNQMTEACLNQSLDALLSRDLIMKEDYELVSTKPTRTSKVRQLLDTTDIQGEEFAKVIVQKLKDNKQMGLQ

variants of: B1; assay: abundance fitness (aPCA) (normalised: wild type 0, dead -1); higher = more abundant; growth selection in yeast, the domain comes from the species named; settings: Homo sapiens

The measured abundance fitness associated with V67C reads -0.33

The measured abundance fitness associated with F64C reads 0.112

The measured abundance fitness associated with S41Y reads -0.117

The measured abundance fitness associated with Q60P reads -0.283

The measured abundance fitness associated with T57W reads -0.738

The measured abundance fitness associated with M33A reads 0.199

The measured abundance fitness associated with L23K reads -0.559

The measured abundance fitness associated with E38I reads 0.053

The measured abundance fitness associated with Q52V reads -0.603

The measured abundance fitness associated with E35N reads -0.521

The measured abundance fitness associated with E35Q reads -0.233

The measured abundance fitness associated with Q52F reads -0.403

The measured abundance fitness associated with V40L reads -0.701

The measured abundance fitness associated with S28H reads -0.25

The measured abundance fitness associated with V67P reads -0.562

The measured abundance fitness associated with I59L reads 0.231

The measured abundance fitness associated with I32A reads -0.686

The measured abundance fitness associated with Q70M reads -0.436

The measured abundance fitness associated with T56C reads -0.105

The measured abundance fitness associated with K34L reads -0.079

The measured abundance fitness associated with E63Q reads -0.485

The measured abundance fitness associated with K73A reads -0.119

The measured abundance fitness associated with R29C reads -0.403

The measured abundance fitness associated with L39C reads -0.379

The measured abundance fitness associated with R29V reads -0.66

The measured abundance fitness associated with I32W reads -0.442

The measured abundance fitness associated with L54Q reads -0.646

The measured abundance fitness associated with S48W reads -0.819

The measured abundance fitness associated with D24W reads -0.881

The measured abundance fitness associated with E35M reads -0.703

The measured abundance fitness associated with T45L reads -0.696

The measured abundance fitness associated with Y37M reads -0.788

The measured abundance fitness associated with L31H reads -0.448

The measured abundance fitness associated with E38A reads -0.129

The measured abundance fitness associated with I68L reads -0.413

The measured abundance fitness associated with L26P reads -0.374

The measured abundance fitness associated with K34A reads -0.094

The measured abundance fitness associated with N75L reads -0.135

The measured abundance fitness associated with K71P reads -0.555

The measured abundance fitness associated with L23I reads -0.918

The measured abundance fitness associated with L54M reads -0.622

The measured abundance fitness associated with D55N reads -0.347

The measured abundance fitness associated with D58T reads -0.015

The measured abundance fitness associated with E62M reads -0.545

The measured abundance fitness associated with L39M reads -0.218
